- Test system: SNB-75 CNS
- assay-comment: NCI tumour cell line growth inhibition, 48 h
Recorded log10(TGI) by entry
Short version: log10 scale, TGI, µM.

c1ccc(N=C2SC3=NCCN3C2=Nc2ccccc2)cc1 :: 1.64
COc1ccc(N(C)c2c3ccccc3nc3[nH]c4ccccc4c23)cc1 :: 1.37
CC(=O)N1c2ccccc2C(C)C1c1[nH]c2ccccc2c1C (stereo unspecified) :: 1.70
C=C1C(=O)O[C@H]2[C@H]1CC/C(COC(=O)c1ccccc1)=C\CC[C@@]1(C)O[C@@H]21 :: 1.27

Tested on SNB-75 CNS: COc1cc2c(cc1OCCCC(=O)Nc1cc(C(=O)NCCCN(C)C)n(C)n1)N=CC1CCCN1C2=O (stereo unspecified) . Observed log10(TGI): 1.35

Tested on SNB-75 CNS: COc1ccc2c(c1)C1(C(=O)N2)C(C#N)=C(c2ccccc2)Nc2c1c(-c1ccccc1)nn2-c1ccccc1 (stereo unspecified) . Observed log10(TGI): 0.54

Tested on SNB-75 CNS: O=C(Nc1ccccc1)Nc1cccc(Oc2nnc(Cl)c3ccccc23)c1 . Observed log10(TGI): 0.77

Tested on SNB-75 CNS: CC(=O)Oc1ccc(/C=C/C(=O)O[C@H]2CCCC[C@@H]2OC(=O)/C=C/c2ccc(OC(C)=O)c(OC(C)=O)c2)cc1OC(C)=O . Observed log10(TGI): 1.77

Tested on SNB-75 CNS: COc1ccc(/C=N/NC(=O)c2cnc3[nH]c(=O)n(C)c(=O)c3c2)cc1 . Observed log10(TGI): 1.59

###

- Test system: MCF7 breast
- assay-comment: NCI tumour cell line growth inhibition, 48 h
Recorded TGI by entry

Entry CCSc1nnc(-c2ccc3ccccc3c2O)n1-c1ccc(Cl)cc1 , TGI reported as > 100 µM

Entry OCc1ccc(N(CCN2CCCC2)Cc2ccc(F)cc2)cc1Cl , TGI reported as 32.1 µM

Entry O=C(OCc1ccccc1)N1CCN(C(=O)OCc2ccccc2)CCN(C(=O)OCc2ccccc2)CCN(C(=O)OCc2ccccc2)CCN(C(=O)OCc2ccccc2)CC1 , TGI reported as > 100 µM

Entry C#CC(O)/C=C/C(O)CCCC(O)CC#CC(O)C#CC(O)CCCC(O)/C=C/CCCC(=O)CCCCCCCCCCCCCCCC(O)C(O)C#CC(=O)O (centres undefined) , TGI reported as > 50 µM

Entry CC1(CC2=C(C(=O)NCCO[Si](C)(C)C(C)(C)C)C3(OCCO3)C2=O)OCCO1 , TGI reported as > 100 µM

Entry O=C1CCS/C(=N\S(=O)(=O)c2ccc(N3N=C4c5ccccc5CC4C3c3cccs3)cc2)N1C(=O)c1ccccc1 (centres undefined) , TGI reported as > 100 µM

Entry CC(NC(=O)C(N)CC(=O)O)NC(=O)N(C)C(C)(C)C (centres undefined) , TGI reported as > 100 µM

Entry Oc1ccc(C#CCOc2ccccc2)cc1CNCCN(Cc1ccccn1)Cc1ccccn1 , TGI reported as 4.43 µM

Entry O=C(COc1cccc(/C=C2\CSc3ccccc3C2=O)c1)c1ccc(Cl)cc1 , TGI reported as 1.81 µM

###

- Tested on: TK-10 renal
- assay-comment: NCI tumour cell line growth inhibition, 48 h
metric: TGI (µM)
Just the number please, in µM, no unit attached.

Examples from the recorded data:
O=C(COc1cccc(/C=C2\CSc3ccccc3C2=O)c1)c1ccc(Cl)cc1 :: 4.42
COc1ccccc1/C=C/C(=O)/C=C/c1ccccc1OC :: 8.83
CC(=O)NC(Cc1ccc(OP(=O)(OCc2ccc([N+](=O)[O-])o2)N(C)CCCCCl)cc1)C(=O)NC(C)c1ccc(OCC2CCCCC2)c(C(N)=O)c1 (stereo not given) :: 32

Attention now turns to another entry.
Entry COc1ccc2c(c1)C1(C(=O)N2)C(C#N)=C(c2ccccc2)Nc2c1c(-c1ccccc1)nn2-c1ccccc1 (stereo not given) , TGI reported as 7.49
